Reference for the values: ChEMBL document CHEMBL4825692

- measurement-protocol: Solubility of the compound in 99 % PBS buffer solution
- Type: physicochemical
experimental-endpoint: solubility (µM)
Quick reminder: number only, in µM, skip the unit.

## Input Give the measured solubility for Cl.c1ccc2oc(-c3ncc[nH]3)cc2c1
## Output 52.5

###

- measurement-protocol: Stability in human plasma assessed as compound remaining after 6 hrs
- Assay type: ADME, cell-free
- measurement-parameters: read-out: Stabilty
experimental-endpoint: remaining at 6 h (%)
Quick reminder: number only, in %, skip the unit.

## Input Give the measured remaining at 6 h for Cl.c1ccc2oc(-c3ncc[nH]3)cc2c1
## Output 57

###

- measurement-protocol: Solubility of the compound in 1% DMSO solution
- Assay type: physicochemical
experimental-endpoint: solubility
In your response, the unit should come after the numeric value.

## Input Give the measured solubility for Cl.c1ccc2oc(-c3ncc[nH]3)cc2c1
## Output 52.5 µM

###

- measurement-protocol: Displacement of [3H]clonidine from imidazoline I1 receptor low affinity site in human hypothalamic membranes measured after 30 mins by liquid scintillation counting spectrometry
- Format: cell membranes, Hypothalamus, Membrane
This section presents compounds with their documented Ki values.
Quick reminder: number only, in µM, skip the unit.

mol	experimental-endpoint	reading-unit	endpoint-result
Cl.c1ccc2oc(-c3ncc[nH]3)cc2c1	Ki	µM	250

Switching to the query record.
## Input Give the measured Ki for COc1nc(C)nc(Cl)c1NC1=NCCN1
## Output 12

###

- measurement-protocol: Permeability of compound by PAMPA-BBB assay
- Format: ADME
Simple rule here: Papp less than 8 ×10⁻⁶ cm/s is met, otherwise not met.

molecule	label-value
COc1ccc2oc(-c3ncc[nH]3)cc2c1.Cl	not met

## Input Say whether its Papp is strictly beneath 8 ×10⁻⁶ cm/s. Entry: CCn1ccnc1-c1cc2ccccc2o1.Cl
## Output not met

## Input Say whether its Papp is strictly beneath 8 ×10⁻⁶ cm/s. Entry: CCn1ccnc1-c1cc2ccc(OC)cc2o1.Cl
## Output not met

## Input Say whether its Papp is strictly beneath 8 ×10⁻⁶ cm/s. Entry: c1ccc2oc(C3=NCCN3)cc2c1
## Output met

## Input Say whether its Papp is strictly beneath 8 ×10⁻⁶ cm/s. Entry: Cl.Oc1ccc2oc(-c3ncc[nH]3)cc2c1
## Output met

## Input Say whether its Papp is strictly beneath 8 ×10⁻⁶ cm/s. Entry: COc1ccc2cc(-c3ncc[nH]3)oc2c1.Cl
## Output met

## Input Say whether its Papp is strictly beneath 8 ×10⁻⁶ cm/s. Entry: c1ccc2c(c1)OCC(C1=NCCN1)O2 (configuration not stated)
## Output met

###

- Species: Homo sapiens
- measurement-protocol: Selectivity index, ratio of pKi for displacement of [3H]2-BFI from imidazoline I2 receptor in post-mortem human brain frontal cortex membrane to pKi for displacement of [3H]-RX821002 from adrenergic alpha 2 receptor in post-mortem human brain frontal cortex membrane
- Type: cell membranes
This section presents compounds with their documented Selectivity Index values.
I only need the number, thanks.

Examples with their reported Selectivity Index follow.
mol	experimental-endpoint	endpoint-result
CCn1ccnc1-c1cc2ccccc2o1.Cl	Selectivity Index	19
c1ccc2oc(C3=NCCN3)cc2c1	Selectivity Index	5370
Cl.Cn1ccnc1-c1cc2ccccc2o1	Selectivity Index	170
CCn1ccnc1-c1cc2ccc(OC)cc2o1.Cl	Selectivity Index	123
Cl.Oc1ccc2cc(-c3ncc[nH]3)oc2c1	Selectivity Index	52
Cl.Oc1ccc2oc(-c3ncc[nH]3)cc2c1	Selectivity Index	11
Cl.c1ccc2oc(-c3ncc[nH]3)cc2c1	Selectivity Index	3090
Brc1ccc2oc(-c3ncc[nH]3)cc2c1.Cl	Selectivity Index	23

## Input Give the measured Selectivity Index for COc1ccc2oc(-c3ncc[nH]3)cc2c1.Cl
## Output 295

## Input Give the measured Selectivity Index for CCn1ccnc1-c1cc2cc(OC)ccc2o1.Cl
## Output 6

## Input Give the measured Selectivity Index for COc1ccc2cc(-c3ncc[nH]3)oc2c1.Cl
## Output 741

###

- measurement-protocol: Stability in human plasma assessed as compound remaining after1 hrs
- Type: ADME, cell-free
- measurement-parameters: read-out: Stabilty
experimental-endpoint: remaining at 1 h (%)
Quick reminder: number only, in %, skip the unit.

## Input Give the measured remaining at 1 h for Cl.c1ccc2oc(-c3ncc[nH]3)cc2c1
## Output 83

###

- assayed-system: Adrenergic receptor alpha-2 (Homo sapiens, UniProt P08913+P18825+P18089)
- measurement-protocol: Displacement of [3H]-RX821002 from adrenergic alpha 2 receptor in post-mortem human brain frontal cortex membrane measured after 30 mins by liquid scintillation counting spectrometry
- Assay type: cell membranes
experimental-endpoint: pKi
I only need the number, thanks.

mol	assayed-system	endpoint-result
CCn1ccnc1-c1cc2cc(OC)ccc2o1.Cl	Adrenergic receptor alpha-2 (Homo sapiens, UniProt P08913+P18825+P18089)	4.21

Switching to the query record.
## Input Output reported pKi of the compound Brc1ccc2oc(-c3ncc[nH]3)cc2c1.Cl on Adrenergic receptor alpha-2 (Homo sapiens, UniProt P08913+P18825+P18089).
## Output 4.92

###

This section presents compounds with their documented Activity values.
- Species on record: Homo sapiens
- measurement-protocol: Displacement of [3H]2-BFI from imidazoline I2 receptor in post-mortem human brain frontal cortex membrane assessed as occupancy at high affinity site measured after 45 mins by liquid scintillation counting spectrometry
Quick reminder: number only, in %, skip the unit.

Examples with their reported Activity follow.
compound	Activity, %
Cl.c1ccc2oc(-c3ncc[nH]3)cc2c1	34
CCn1ccnc1-c1cc2ccc(OC)cc2o1.Cl	12
Brc1ccc2oc(-c3ncc[nH]3)cc2c1.Cl	20
CCn1ccnc1-c1cc2cc(OC)ccc2o1.Cl	35
c1ccc2c(c1)OCC(C1=NCCN1)O2 (stereo not given) [IDAZOXAN]	40
CCn1ccnc1-c1cc2ccccc2o1.Cl	22

Switching to the query record.
## Input Give the measured Activity for c1ccc2oc(C3=NCCN3)cc2c1
## Output 58

###

- measurement-protocol: Displacement of [3H]2-BFI from imidazoline I2 receptor in post-mortem human brain frontal cortex membrane one site model measured after 45 mins by liquid scintillation counting spectrometry
Classify by measured pKi: true (1) if it is equal to or exceeds 6, false (0) if it is smaller.

Field: example entries. Status: answers known.
molecule	label-value
COc1ccc2oc(-c3ncc[nH]3)cc2c1.Cl	true (1)
c1ccc2oc(C3=NCCN3)cc2c1	true (1)
Brc1ccc2oc(-c3ncc[nH]3)cc2c1.Cl	true (1)
CCn1ccnc1-c1cc2ccccc2o1.Cl	false (0)
Cl.Oc1ccc2cc(-c3ncc[nH]3)oc2c1	false (0)
CCn1ccnc1-c1cc2ccc(OC)cc2o1.Cl	false (0)
Cl.Oc1ccc2oc(-c3ncc[nH]3)cc2c1	false (0)
Cl.c1ccc2oc(-c3ncc[nH]3)cc2c1	true (1)
c1ccc2c(c1)OCC(C1=NCCN1)O2 (configuration not stated)	true (1)

## Input Please check the record CCn1ccnc1-c1cc2cc(OC)ccc2o1.Cl and state if its pKi is at or above 6.
## Output false (0)

###

- measurement-protocol: AUC (0 to infinity) in CD-1 mouse at 10 mg/kg, po measured after 24 hrs by HPLC/UV-VS analysis
- Type: ADME, organism-based
- Design: route oral, time 24 hrs, dose 10 mg/kg
- measurement-parameters: in vivo
experimental-endpoint: AUC(0-inf) (ng·h/mL)
Quick reminder: number only, in ng·h/mL, skip the unit.

## Input Give the measured AUC(0-inf) for Cl.c1ccc2oc(-c3ncc[nH]3)cc2c1
## Output 2600

###

- measurement-protocol: Plasma protein binding in human assessed as unbound fraction
- Assay type: ADME, cell-free
experimental-endpoint: fraction unbound
I only need the number, thanks.

## Input Give the measured fraction unbound for Cl.c1ccc2oc(-c3ncc[nH]3)cc2c1
## Output 0.071

###

- assayed-system: hERG (KCNH2) (Homo sapiens, UniProt Q12809)
- Sequence (Q12809 whole entry): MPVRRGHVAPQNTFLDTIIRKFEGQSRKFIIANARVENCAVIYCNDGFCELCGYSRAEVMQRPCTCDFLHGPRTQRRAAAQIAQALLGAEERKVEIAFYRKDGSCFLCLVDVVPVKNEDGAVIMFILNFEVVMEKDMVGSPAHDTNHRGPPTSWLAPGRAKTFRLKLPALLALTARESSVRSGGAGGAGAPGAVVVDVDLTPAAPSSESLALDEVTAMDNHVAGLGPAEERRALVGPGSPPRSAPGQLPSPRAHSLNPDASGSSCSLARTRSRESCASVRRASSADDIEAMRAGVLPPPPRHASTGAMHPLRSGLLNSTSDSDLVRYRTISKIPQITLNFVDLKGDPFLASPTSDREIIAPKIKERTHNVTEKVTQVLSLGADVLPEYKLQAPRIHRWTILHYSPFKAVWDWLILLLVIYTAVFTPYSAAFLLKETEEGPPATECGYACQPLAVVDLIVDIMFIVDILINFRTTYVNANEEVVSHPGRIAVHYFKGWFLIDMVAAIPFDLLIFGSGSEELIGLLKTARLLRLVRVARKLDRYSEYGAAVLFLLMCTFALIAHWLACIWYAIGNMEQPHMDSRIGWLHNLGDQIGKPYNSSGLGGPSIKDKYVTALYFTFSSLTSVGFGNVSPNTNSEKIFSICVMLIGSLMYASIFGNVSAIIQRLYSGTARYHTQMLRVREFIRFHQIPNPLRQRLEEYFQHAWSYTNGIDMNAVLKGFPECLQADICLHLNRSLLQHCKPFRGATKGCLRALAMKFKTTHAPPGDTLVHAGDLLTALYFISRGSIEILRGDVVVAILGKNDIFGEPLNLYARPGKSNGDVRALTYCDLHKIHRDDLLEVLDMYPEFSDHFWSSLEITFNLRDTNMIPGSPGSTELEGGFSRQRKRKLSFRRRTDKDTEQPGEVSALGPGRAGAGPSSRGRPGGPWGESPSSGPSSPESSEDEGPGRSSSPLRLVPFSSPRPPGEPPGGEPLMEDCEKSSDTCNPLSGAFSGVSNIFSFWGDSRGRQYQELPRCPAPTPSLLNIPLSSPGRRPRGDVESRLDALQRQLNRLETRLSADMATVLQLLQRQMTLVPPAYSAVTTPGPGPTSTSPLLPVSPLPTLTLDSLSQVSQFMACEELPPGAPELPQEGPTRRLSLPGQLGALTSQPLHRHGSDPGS
- measurement-protocol: Inhibition of human ERG at 10 uM
experimental-endpoint: inhibition at 10 µM (%)
Quick reminder: number only, in %, skip the unit.

## Input Give the measured inhibition at 10 µM for Cl.c1ccc2oc(-c3ncc[nH]3)cc2c1
## Output 4

###

- measurement-protocol: Microsomal stability in mouse liver microsomes assessed as parent compound remaining after 60 mins
- Format: ADME, Microsome
- measurement-parameters: read-out: Stabilty
experimental-endpoint: remaining at 1 h (%)
Quick reminder: number only, in %, skip the unit.

## Input Give the measured remaining at 1 h for Cl.c1ccc2oc(-c3ncc[nH]3)cc2c1
## Output 36

###

This section presents molecules with their documented pKi values.
- measurement-protocol: Displacement of [3H]2-BFI from imidazoline I2 receptor low affinity site in post-mortem human brain frontal cortex membrane two site model measured after 45 mins by liquid scintillation counting spectrometry

Examples with their reported pKi follow.
molecule	endpoint-result
CCn1ccnc1-c1cc2cc(OC)ccc2o1.Cl	4.16
COc1ccc2cc(-c3ncc[nH]3)oc2c1.Cl	4.58

## Input Give the measured pKi for CCn1ccnc1-c1cc2ccc(OC)cc2o1.Cl
## Output 5.11

## Input Give the measured pKi for Cl.Oc1ccc2oc(-c3ncc[nH]3)cc2c1
## Output 4.6

## Input Give the measured pKi for Cl.c1ccc2oc(-c3ncc[nH]3)cc2c1
## Output 6.02

## Input Give the measured pKi for c1ccc2c(c1)OCC(C1=NCCN1)O2 (stereo not given)
## Output 5.76

## Input Give the measured pKi for CCn1ccnc1-c1cc2ccccc2o1.Cl
## Output 4.72

## Input Give the measured pKi for c1ccc2oc(C3=NCCN3)cc2c1
## Output 7.15

## Input Give the measured pKi for Cl.Cn1ccnc1-c1cc2ccccc2o1
## Output 5.35

## Input Give the measured pKi for Brc1ccc2oc(-c3ncc[nH]3)cc2c1.Cl
## Output 5.85
